Target: ROCKII (1-543) (Homo sapiens (Human))
Test: Luciferin-Luciferase Assay (Assay 1)
Assay type: biochemical
Conditions: luciferin-luciferase residual ATP; 750 nM ATP, 7.5 nM kinase
Sequence (O75116 1-543): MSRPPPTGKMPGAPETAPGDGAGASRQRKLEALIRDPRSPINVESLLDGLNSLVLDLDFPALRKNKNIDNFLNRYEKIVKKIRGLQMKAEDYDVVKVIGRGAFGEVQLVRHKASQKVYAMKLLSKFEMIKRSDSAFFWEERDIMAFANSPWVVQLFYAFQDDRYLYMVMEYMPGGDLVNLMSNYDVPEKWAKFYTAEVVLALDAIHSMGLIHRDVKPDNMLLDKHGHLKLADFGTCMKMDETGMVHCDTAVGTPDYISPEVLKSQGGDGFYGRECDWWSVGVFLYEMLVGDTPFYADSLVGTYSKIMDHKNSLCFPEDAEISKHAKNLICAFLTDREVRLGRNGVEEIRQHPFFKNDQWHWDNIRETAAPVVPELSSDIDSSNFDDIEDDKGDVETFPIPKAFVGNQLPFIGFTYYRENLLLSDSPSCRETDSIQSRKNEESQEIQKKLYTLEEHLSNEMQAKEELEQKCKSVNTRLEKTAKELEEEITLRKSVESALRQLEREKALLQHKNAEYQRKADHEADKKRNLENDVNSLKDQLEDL
# if measured IC50 < 10 nM: label 1  # else: label 0

{"Molecule": "Cc1cc(-c2ccc(C(=O)NCc3cccc(C(=O)Nc4nc5c(s4)CN(C)CC5)c3)cc2)ccn1 [compound 144]", "Class label": "label 1"}
{"Molecule": "Cc1sc(-c2ccncc2)nc1C(=O)NCc1cccc(C(=O)Nc2nc3c(s2)CN(C)CC3)c1 [compound 58]", "Class label": "label 1"}
{"Molecule": "CN(C)[C@H]1CCc2nc(NC(=O)c3cccc(CNC(=O)c4cn5cc(C#N)ccc5n4)c3)sc2C1 [compound 100]", "Class label": "label 1"}
{"Molecule": "CN1CCc2ccc(NC(=O)c3cccc(CNC(=O)c4cnc(-c5cccnc5)s4)c3)cc2C1 [compound 194]", "Class label": "label 1"}
{"Molecule": "Cc1ncc(-c2ccc(C(=O)NCc3cccc(C(=O)Nc4nc5c(s4)CN(C)CC5)c3)s2)o1 [compound 116]", "Class label": "label 0"}
{"Molecule": "CN1CCc2nc(NC(=O)c3cccc(CNC(=O)N4CCc5c(C#N)cccc54)c3)sc2C1 [compound 90]", "Class label": "label 1"}
{"Molecule": "CN1CCc2ccc(NC(=O)c3cccc(CNC(=O)c4csc(-c5ccncc5)n4)c3)cc2C1 [compound 33]", "Class label": "label 0"}

---

The compounds listed here are annotated with their IC50.
Target: ROCKII (1-543) (Homo sapiens (Human))
Assay: Luciferin-Luciferase Assay (Assay 1)
Assay type: biochemical
Details: luciferin-luciferase residual ATP; 750 nM ATP, 7.5 nM kinase

{"Compound smiles": "Cc1cc(-c2ncc(C(=O)NCc3cccc(C(=O)Nc4nc5c(s4)CN(C)CC5)c3)s2)ccn1", "Result units": "nM", "IC50": 9.5}
{"Compound smiles": "N[C@H]1CCc2nc(NC(=O)c3cccc(CNC(=O)c4ccc(-c5csnn5)cc4)c3)sc2C1", "Result units": "nM", "IC50": 7.6}
{"Compound smiles": "CN1CCc2ccc(NC(=O)c3cccc(CNC(=O)c4cccc(-n5ccnc5)c4)c3)cc2C1", "Result units": "nM", "IC50": 14.5}
{"Compound smiles": "CN1CCc2ccc(NC(=O)c3cccc(CNC(=O)c4cccc(-c5cnco5)c4)c3)cc2C1", "Result units": "nM", "IC50": 6.5}
{"Compound smiles": "CN1CCc2ccc(NC(=O)c3cccc(CNC(=O)c4cn5cc(C(N)=O)ccc5n4)c3)cc2C1", "Result units": "nM", "IC50": 5.9}
{"Compound smiles": "Cc1c(C(=O)NCc2cccc(C(=O)Nc3ccc4c(c3)CN(C)CC4)c2)nnn1-c1nonc1N", "Result units": "nM", "IC50": 5.9}
{"Compound smiles": "Cc1nnnn1-c1ccc(C(=O)NCc2cccc(C(=O)Nc3nc4c(s3)CN(C)CC4)c2)cc1", "Result units": "nM", "IC50": 6}

---

Biological target: ROCKII (1-543) (Homo sapiens (Human))
Test: IMAP Assay (Assay 2)
Format: biochemical
Settings: IMAP fluorescence polarization; 100 μM ATP, 1 nM kinase
Sequence (O75116 1-543, species assumed): as the sequence (O75116 1-543) above
The compounds listed here are annotated with their IC50.
Measurement label: IC50 (nM)

{"Compound": "Cc1nnnn1-c1ccc(C(=O)NCc2cccc(C(=O)Nc3nc4c(s3)C[C@@H](N(C)C)CC4)c2)cc1 [compound 104]", "Reported result": 0.43}
{"Compound": "CN1CCc2ccc(NC(=O)c3cccc(CNC(=O)c4ccc(-c5ccncc5)cc4)c3)cc2C1 [compound 129]", "Reported result": 0.195}
{"Compound": "CN(C)[C@H]1CCc2nc(NC(=O)c3cccc(CNC(=O)c4cc(-c5ccncc5)[nH]n4)c3)sc2C1 [compound 207]", "Reported result": 0.2}
{"Compound": "Cc1nnnn1-c1ccc(C(=O)NCc2cccc(C(=O)Nc3nc4c(s3)CN(C)CC4)c2)cc1 [compound 8]", "Reported result": 9.8}
{"Compound": "O=C(Nc1nc2c(s1)C[C@@H](N1CCOCC1)CC2)c1cccc(CNC(=O)c2csc(-c3cccnc3)n2)c1 [compound 146]", "Reported result": 0.73}
{"Compound": "Cc1c(C(=O)NCc2cccc(C(=O)Nc3nc4c(s3)C[C@@H](N(C)C)CC4)c2)nnn1-c1nonc1N [compound 142]", "Reported result": 0.33}
{"Compound": "CN1CCc2nc(NC(=O)c3cccc(CNC(=O)c4cn5cc(C(N)=O)ccc5n4)c3)sc2C1 [compound 209]", "Reported result": 3.7}
{"Compound": "CN1CCc2ccc(NC(=O)c3cccc(CNC(=O)c4cc5ccc(C#N)cc5[nH]4)c3)cc2C1 [compound 52]", "Reported result": 8.1}
{"Compound": "CN1CCc2nc(NC(=O)c3cccc(CNC(=O)c4ccc(-c5cnco5)cc4)c3)sc2C1 [compound 12]", "Reported result": 0.21}
{"Compound": "O=C(NCc1cccc(C(=O)Nc2nc3c(s2)C[C@@H](N2CCOCC2)CC3)c1)c1ccc(-n2ccnc2)cc1 [compound 172]", "Reported result": 0.38}
{"Compound": "Cc1nccn1-c1ccc(C(=O)NCc2cccc(C(=O)Nc3ccc4c(c3)CN(C)CC4)c2)cc1 [compound 200]", "Reported result": 1.6}
{"Compound": "N[C@@H]1CCc2nc(NC(=O)c3cccc(CNC(=O)c4csc(-c5ccncc5)n4)c3)sc2C1 [compound 32]", "Reported result": 4.8}
{"Compound": "CN1CCc2ccc(NC(=O)c3cccc(CNC(=O)c4ccc(-c5ccn[nH]5)cc4)c3)cc2C1 [compound 179]", "Reported result": 34}
{"Compound": "CN1CCc2nc(NC(=O)c3cccc(CNC(=O)c4ccc(-c5ccncc5)s4)c3)sc2C1 [compound 112]", "Reported result": 0.18}
{"Compound": "Nc1nonc1-n1nnc(C(=O)NCc2cccc(C(=O)Nc3nc4c(s3)C[C@@H](N3CCOCC3)CC4)c2)c1-c1ccccc1 [compound 150]", "Reported result": 2.65}
{"Compound": "CN1CCc2ccc(NC(=O)c3cccc(CNC(=O)c4ccc(C5=CSNN5)cc4)c3)cc2C1 [compound 31]", "Reported result": 4.6}
{"Compound": "Cc1c(C(=O)NCc2cccc(C(=O)Nc3nc4c(s3)CN(C)CC4)c2)nnn1-c1nonc1N [compound 44]", "Reported result": 9.3}
{"Compound": "CN1CCc2ccc(NC(=O)c3cccc(CNC(=O)c4cc5cc(C(N)=O)ccc5n4C)c3)cc2C1 [compound 96]", "Reported result": 12.2}
{"Compound": "CN1CCc2ccc(NC(=O)c3cccc(CNC(=O)c4nnn(-c5nonc5N)c4-c4ccccc4)c3)cc2C1 [compound 123]", "Reported result": 3.9}
{"Compound": "CN1CCc2nc(NC(=O)c3cccc(CNC(=O)c4cccc(-c5cccnc5)c4)c3)sc2C1 [compound 4]", "Reported result": 73}
{"Compound": "CN(C)[C@H]1CCc2nc(NC(=O)c3cccc(CNC(=O)c4nnn(-c5nonc5N)c4-c4ccccc4)c3)sc2C1 [compound 138]", "Reported result": 0.21}
{"Compound": "Cc1cc(-c2ncc(C(=O)NCc3cccc(C(=O)Nc4nc5c(s4)CN(C)CC5)c3)s2)ccn1 [compound 154]", "Reported result": 39}
{"Compound": "CN1CCc2nc(NC(=O)c3cccc(CNC(=O)c4cccc(-c5cn[nH]c5)c4)c3)sc2C1 [compound 6]", "Reported result": 0.53}
{"Compound": "CN1CCc2nc(NC(=O)c3cccc(CNC(=O)c4ccc5cc(O)ccc5c4)c3)sc2C1 [compound 20]", "Reported result": 0.39}

---

The compounds listed here are annotated with their pIC50.
Biological target: ROCKII (1-543) (Homo sapiens (Human))
Assay: Luciferin-Luciferase Assay (Assay 1)
Assay type: biochemical
Details: luciferin-luciferase residual ATP; 750 nM ATP, 7.5 nM kinase
pIC50: −log10 of the molar value.

{"Compound smiles": "CN1CCc2nc(NC(=O)c3cccc(CNC(=O)c4cn5ccc(C#N)cc5n4)c3)sc2C1", "pIC50": 8.60}
{"Compound smiles": "CN1CCc2ccc(NC(=O)c3cccc(CNC(=O)c4cn5ccc(C#N)cc5n4)c3)cc2C1", "pIC50": 7.71}
{"Compound smiles": "CN1CCc2ccc(NC(=O)c3cccc(CNC(=O)c4cc5cc(C#N)ccc5[nH]4)c3)cc2C1", "pIC50": 8.82}
{"Compound smiles": "Cc1nc2cnccc2n1-c1ccc(C(=O)NCc2cccc(C(=O)Nc3ccc4c(c3)CN(C)CC4)c2)cc1", "pIC50": 7.42}
{"Compound smiles": "CN1CCc2ccc(NC(=O)c3cccc(CNC(=O)c4cn5ccc(C(N)=O)cc5n4)c3)cc2C1", "pIC50": 8.54}
{"Compound smiles": "CN1CCc2ccc(NC(=O)c3cccc(CNC(=O)c4cc(-c5ccncc5)[nH]n4)c3)cc2C1", "pIC50": 8.89}
